measurementTarget: T1, EsCas13d, nuclease-dead (Eubacterium siraeum, UniProt B0MS50, R295A;H300A;R849A;H854A)
T1 sequence: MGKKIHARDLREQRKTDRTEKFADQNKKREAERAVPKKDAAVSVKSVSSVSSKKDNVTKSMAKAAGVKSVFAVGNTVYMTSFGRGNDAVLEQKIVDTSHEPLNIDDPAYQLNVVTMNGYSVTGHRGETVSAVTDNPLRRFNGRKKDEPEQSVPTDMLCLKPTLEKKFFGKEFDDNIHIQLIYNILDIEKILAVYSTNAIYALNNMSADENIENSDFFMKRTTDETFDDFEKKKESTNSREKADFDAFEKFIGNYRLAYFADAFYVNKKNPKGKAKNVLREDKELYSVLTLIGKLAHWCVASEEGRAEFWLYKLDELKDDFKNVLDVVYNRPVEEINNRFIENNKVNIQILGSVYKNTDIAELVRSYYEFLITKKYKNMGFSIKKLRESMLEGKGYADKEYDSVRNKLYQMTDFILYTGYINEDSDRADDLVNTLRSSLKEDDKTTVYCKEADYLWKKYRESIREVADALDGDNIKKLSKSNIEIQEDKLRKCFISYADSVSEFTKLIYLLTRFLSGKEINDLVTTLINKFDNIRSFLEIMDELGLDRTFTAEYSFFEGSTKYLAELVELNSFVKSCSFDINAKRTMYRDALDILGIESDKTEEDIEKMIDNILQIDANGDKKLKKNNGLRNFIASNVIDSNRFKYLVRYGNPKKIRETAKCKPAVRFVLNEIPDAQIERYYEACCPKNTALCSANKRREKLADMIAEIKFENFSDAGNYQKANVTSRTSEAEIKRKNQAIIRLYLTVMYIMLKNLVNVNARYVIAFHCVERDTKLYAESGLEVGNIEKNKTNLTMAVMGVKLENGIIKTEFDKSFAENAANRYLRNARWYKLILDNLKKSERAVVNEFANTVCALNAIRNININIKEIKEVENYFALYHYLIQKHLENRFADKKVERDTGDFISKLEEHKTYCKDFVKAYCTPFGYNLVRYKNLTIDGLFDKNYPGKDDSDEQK
testMethodNotes: crRNA (strand 1, pre-loaded); Mg2+; 40 mM Tris-HCl pH 7.5, 150 mM NaCl, 6 mM MgCl2, 1 mM DTT, 0.1% Tween-20, 0.2 mg/ml BSA; 25 C; 10 min per concentration, then washed
recordedConditions: tags: His6-TwinStrep-SUMO cleaved; N-terminal SNAP kept (SNAP-Surface 488); label: 3' end held by stalled T7 RNA polymerase
Task for the reader: assign each of the following binders its reported pKd.
// pKd here means minus log10 of the molar concentration (mol/L)

Task: Field request: pKd | item: target 1 insG 3' of 22,insC 3' of 14 (mixed) RNA 1: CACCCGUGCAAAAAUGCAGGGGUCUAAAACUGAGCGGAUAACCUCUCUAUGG RNA 2: GGGAAUGGAUCCACAUCUACGAAUUCGUACGCAUAGAGACGGUUAUCCGCUCACCGAGAUCGGAAGAGCACACGU
Output: 7.39

Task: Request the reported pKd associated with target 1 MT 5'PFS GCU 3'PFS UUA (mixed) RNA 1: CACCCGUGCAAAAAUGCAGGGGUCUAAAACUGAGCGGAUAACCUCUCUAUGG RNA 2: GGGAAUGGAUCCACAUCUACGAAUUCGCUCCAUAGAGAGGUUAUCCGCUCAUUAAGAUCGGAAGAGCACACGU
Output: 7.66

Task: What pKd value was documented for this binder, target 1 insA 3' of 8,insG 3' of 3 (mixed) RNA 1: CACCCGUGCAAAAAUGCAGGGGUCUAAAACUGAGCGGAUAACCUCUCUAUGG RNA 2: GGGAAUGGAUCCACAUCUACGAAUUCGUACCAUAGAGAGGUUAUACCGCUGCACCGAGAUCGGAAGAGCACACGU ?
Output: 8.00

Task: Suppose we examine the binder target 3 insU 3' of 6 (mixed) RNA 1: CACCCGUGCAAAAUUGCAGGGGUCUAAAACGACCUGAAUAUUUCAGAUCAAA RNA 2: GGGAAUGGAUCCACAUCUACGAAUUCGUUUUUGAUCUGAAAUAUUCUAGGUCUGCAGAUCGGAAGAGCACACGU ; what pKd value has been reported?
Output: 7.76

Task: Would you kindly share the measured pKd for target 2 MT 5'PFS GAA 3'PFS CAG (mixed) RNA 1: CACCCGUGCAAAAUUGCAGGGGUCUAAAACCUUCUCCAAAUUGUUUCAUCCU RNA 2: GGGAAUGGAUCCACAUCUACGAAUUCGAAAGGAUGAAACAAUUUGGAGAAGCAGAGAUCGGAAGAGCACACGU ?
Output: 8.18

Task: Please report the recorded pKd for target 1 insU 3' of 7,insC 3' of 1 (mixed) RNA 1: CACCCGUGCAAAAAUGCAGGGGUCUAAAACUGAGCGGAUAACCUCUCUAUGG RNA 2: GGGAAUGGAUCCACAUCUACGAAUUCGUACCAUAGAGAGGUUAUCUCGCUCACCCGAGAUCGGAAGAGCACACGU .
Output: 7.86

Task: Entry target 3 insC 3' of 9,insU 3' of 5 (mixed) RNA 1: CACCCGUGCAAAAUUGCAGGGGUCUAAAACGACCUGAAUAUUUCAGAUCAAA RNA 2: GGGAAUGGAUCCACAUCUACGAAUUCGUUUUUGAUCUGAAAUACUUCAUGGUCUGCAGAUCGGAAGAGCACACGU : reported pKd = ?
Output: 7.12

Task: Entry target 1 insU 3' of 22,insA 3' of 10 (mixed) RNA 1: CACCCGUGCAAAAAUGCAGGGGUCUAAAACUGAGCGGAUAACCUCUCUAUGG RNA 2: GGGAAUGGAUCCACAUCUACGAAUUCGUACUCAUAGAGAGGUUAAUCCGCUCACCGAGAUCGGAAGAGCACACGU has what pKd?
Output: 7.37

Task: I am curious: what pKd value has been reported for target 2 MT 5'PFS UUA 3'PFS GCA (mixed) RNA 1: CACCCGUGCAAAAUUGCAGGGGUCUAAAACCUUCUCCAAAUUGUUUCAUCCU RNA 2: GGGAAUGGAUCCACAUCUACGAAUUCUUAAGGAUGAAACAAUUUGGAGAAGGCAAGAUCGGAAGAGCACACGU ?
Output: 7.83

Task: For the binder shown here, target 1 C6G,C7U (mixed) RNA 1: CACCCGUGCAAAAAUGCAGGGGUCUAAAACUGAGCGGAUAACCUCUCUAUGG RNA 2: GGGAAUGGAUCCACAUCUACGAAUUCGUACCAUAGAGAGGUUAUUGGCUCACCGAGAUCGGAAGAGCACACGU , give the reported pKd.
Output: 8.09

Task: For the binder target 1 C6U,A9G (mixed) RNA 1: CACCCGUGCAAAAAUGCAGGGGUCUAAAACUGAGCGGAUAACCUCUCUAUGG RNA 2: GGGAAUGGAUCCACAUCUACGAAUUCGUACCAUAGAGAGGUUGUCUGCUCACCGAGAUCGGAAGAGCACACGU , what pKd is on record?
Output: 7.85

Task: Please give the measured pKd for this binder: target 1 insG 3' of 16,insC 3' of 14 (mixed) RNA 1: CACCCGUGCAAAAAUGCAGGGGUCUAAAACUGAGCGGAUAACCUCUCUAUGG RNA 2: GGGAAUGGAUCCACAUCUACGAAUUCGUACCAUAGAGGACGGUUAUCCGCUCACCGAGAUCGGAAGAGCACACGU
Output: 7.42

Task: Looking for the measured pKd of target 1 insG 3' of 18,insG 3' of 4 (mixed) RNA 1: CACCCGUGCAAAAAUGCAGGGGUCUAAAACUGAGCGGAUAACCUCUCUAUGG RNA 2: GGGAAUGGAUCCACAUCUACGAAUUCGUACCAUAGGAGAGGUUAUCCGCGUCACCGAGAUCGGAAGAGCACACGU , can you help?
Output: 7.43

Task: What measured pKd goes with target 1 C2U,A18U (mixed) RNA 1: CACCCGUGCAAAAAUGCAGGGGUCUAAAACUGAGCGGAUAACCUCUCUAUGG RNA 2: GGGAAUGGAUCCACAUCUACGAAUUCGUACCAUUGAGAGGUUAUCCGCUUACCGAGAUCGGAAGAGCACACGU ?
Output: 7.67

Task: Record request: pKd value, item target 1 MT 5'PFS GCC 3'PFS UAC (mixed) RNA 1: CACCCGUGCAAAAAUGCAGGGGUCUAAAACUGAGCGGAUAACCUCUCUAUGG RNA 2: GGGAAUGGAUCCACAUCUACGAAUUCGCCCCAUAGAGAGGUUAUCCGCUCAUACAGAUCGGAAGAGCACACGU
Output: 7.80
